target: cruzain (Trypanosoma cruzi, UniProt P25779); construct: made in house; host or cells: Escherichia coli (strain M15); experiment: Cruzain enzyme inhibition assay (cleavage of fluorogenic substrate Z-FR-AMC); type: biochemical; conditions: 1.5 nM cruzain, 5.0 µM Z-FR-AMC; mean ± SD of 2–3 assays; read-out: IC50 (µM) against cruzain
Sequence (P25779 123-337 limits assumed): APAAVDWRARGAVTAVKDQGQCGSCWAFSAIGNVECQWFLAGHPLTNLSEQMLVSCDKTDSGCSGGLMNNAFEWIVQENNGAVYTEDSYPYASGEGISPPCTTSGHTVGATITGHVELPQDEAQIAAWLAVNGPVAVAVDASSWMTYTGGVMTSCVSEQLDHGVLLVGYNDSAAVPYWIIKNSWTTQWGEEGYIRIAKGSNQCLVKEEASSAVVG
Recorded IC50 values for a group of molecules are listed next.
Lab book: enter the figure in µM, no units written.

Worked cases, IC50 given:
O=C(COc1ccccc1)NCCc1nc2ccccc2n1CCCOc1ccccc1; 2.2
CC(=O)Nc1cccc(OCC(=O)NCCc2nc3ccccc3[nH]2)c1; 28.1

For `CC(=O)Nc1ccc(OCC(=O)NCCc2nc3ccccc3[nH]2)cc1` , what is its reported IC50?
4.5

`O=C(COc1ccccc1)NCCc1nc2ccccc2n1CCOCc1ccccc1` , same question.
1.69

`Cn1c(CCNC(=O)COc2ccccc2)nc2ccccc21` , same question.
8.6

* * *

assay: In vitro metabolic stability in human liver microsomes; format: in vitro ADME; settings: Table S5
endpoint: CLint (L/h/kg) Human
Lab book: enter the figure in L/h/kg, no units written.

Worked cases, CLint (L/h/kg) Human given:
Cc1cc(C)c(C#N)c(SCC(=O)NCCc2c[nH]c3ccccc23)n1; 155.00
O=Cc1c(OCC(=O)NCCc2nc3ccccc3[nH]2)ccc2ccccc12; 37.30
O=C(COc1ccc2ccccc2c1Br)NCCc1nc2ccccc2n1CCC(=O)c1cccs1; 157.00
COc1cccc(C(=O)CCn2c(CCNC(=O)COc3ccc4ccccc4c3Br)nc3ccccc32)c1; 125.00
Cc1ccccc1OCC(=O)NCCc1c[nH]c2ccccc12; 23.60

Attention now shifts to the item below.
For `COc1ccc2[nH]c(CCNC(=O)COc3ccc4ccccc4c3Br)nc2c1` , what is its reported CLint (L/h/kg) Human?
72.40

* * *

experiment: In vitro metabolic stability in mouse liver microsomes; type: in vitro ADME; conditions: Table S5, CLint/fu
Recorded CLint_u (L/h/kg) Mouse values for a group of compounds are listed next.
Lab book: enter the figure in L/h/kg, no units written.

Cc1cc(C)c(C#N)c(SCC(=O)NCCc2c[nH]c3ccccc23)n1 [Compound 60]; 608.53
O=C(COc1ccccc1F)NCCc1nc2ccccc2[nH]1 [Compound 39]; 132.56
CC(=O)Nc1ccccc1OCC(=O)NCCc1nc2ccccc2[nH]1 [Compound 43]; 10.30
O=C(CSc1ccccc1)NCCc1nc2ccccc2[nH]1 [Compound 48]; 293.60

For Cc1cc(C)c(C#N)c(SCC(=O)NCCc2nc3ccccc3[nH]2)n1 [Compound 59] , what is its reported CLint_u (L/h/kg) Mouse?
453.17

CC(=O)NCCc1nc2ccccc2n1CCOc1ccccc1 [Compound 55] , same question.
39.06

O=C(CCOc1ccccc1)NCCc1nc2ccccc2[nH]1 [Compound 49] , same question.
86.20

* * *

test: In vitro metabolic stability in mouse liver microsomes; format: in vitro ADME; conditions: mouse, liver microsomes, Table 5, read-out: CLint (L/h/kg) mouse (converted)
Entries get a class label from measured CLint scaled at 5 µM. See ranges: range 1: < 200 L/h/kg; range 2: ≥ 200 L/h/kg and < 600 L/h/kg; range 3: ≥ 600 L/h/kg

Reference set (6 entries):
Cc1ccccc1OCC(=O)NCCc1nc2ccccc2o1; range 3
C=CCCn1c(CCNC(=O)COc2ccccc2Cl)nc2ccccc21; range 3
O=C(CCc1ccccc1Br)NCCc1nc2ccccc2[nH]1; range 3
Cc1ccccc1OCC(=O)NCCc1nc2ccccc2[nH]1; range 2
O=C(Cn1ccnc1[N+](=O)[O-])NCc1ccccc1 [BZ, benznidazole, reference compound]; range 1
N#Cc1ccccc1OCC(=O)NCCc1nc2ccccc2[nH]1; range 1

Pick a category. Item: `O=C(COc1ccccc1Br)NCCc1nc2ccccc2[nH]1`
range 1

`O=C(COc1ccc(Br)cc1)NCCc1nc2ccccc2[nH]1` , same question.
range 1

`O=C(COc1ccccc1[N+](=O)[O-])NCCc1nc2ccccc2[nH]1` , same question.
range 2

`O=C(COc1ccc2ccccc2c1)NCCc1nc2ccccc2[nH]1` , same question.
range 2

* * *

assay: Fraction unbound by equilibrium dialysis; assay type: in vitro ADME; conditions: Table S5; fraction unbound
Decide using fu alone. Strictly below 0.5: True. Equal to or above 0.5: False.

Reference set (4 entries):
O=C(COc1ccc2ccccc2c1)NCCc1nc2ccccc2o1; False
Nc1ccccc1OCC(=O)NCCc1nc2ccccc2[nH]1; False
O=C(COc1ccc2ccccc2c1Br)NCCc1nc2ccccc2n1CCC(=O)c1cccs1; True
O=C(CSc1ccccc1)NCCc1nc2ccccc2[nH]1; False

Take the molecule `COc1ccc2[nH]c(CCNC(=O)COc3ccc4ccccc4c3Br)nc2c1` and say whether its fu is less than 0.5.
True

* * *

test: Parallel artificial membrane permeability assay (PAMPA); type: in vitro ADME; details: PAMPA, Table 5
Entries get a class label from measured Papp at 5 h, 1 µM. See ranges: low band: < 2 ×10⁻⁶ cm/s; middle band: ≥ 2 ×10⁻⁶ cm/s and < 6 ×10⁻⁶ cm/s; high band: ≥ 6 ×10⁻⁶ cm/s

Reference set (3 entries):
O=C(COc1ccc2ccccc2c1)NCCc1nc2ccccc2[nH]1 [Compound 35]; low band
O=C(CCc1ccccc1Br)NCCc1nc2ccccc2[nH]1 [Compound 36]; middle band
Cc1ccccc1OCC(=O)NCCc1nc2ccccc2o1 [Compound 37]; high band

Pick a category. Item: N#Cc1ccccc1OCC(=O)NCCc1nc2ccccc2[nH]1 [Compound 31]
middle band

O=C(COc1ccc(Br)cc1)NCCc1nc2ccccc2[nH]1 [Compound 33] , same question.
low band

O=C(COc1ccccc1[N+](=O)[O-])NCCc1nc2ccccc2[nH]1 [Compound 32] , same question.
middle band

O=C(COc1ccc2ccccc2c1Br)NCCc1nc2ccccc2[nH]1 [Compound 34] , same question.
low band

O=C(Cn1ccnc1[N+](=O)[O-])NCc1ccccc1 [BZ, benznidazole, reference compound] , same question.
middle band

O=C(COc1ccccc1Br)NCCc1nc2ccccc2[nH]1 [Compound 18] , same question.
middle band

C=CCCn1c(CCNC(=O)COc2ccccc2Cl)nc2ccccc21 [Compound 38] , same question.
high band

* * *

assay: In vivo pharmacokinetics in male CD1 mice; design: species or system mouse; settings: male, CD1, mouse, plasma, 0.5 mg/kg; Table S6; PO, mice; read-out: AUC (ng*h/mL) PO
Label met when AUC is at or above 500 ng·h/mL; otherwise label not met.

Reference set (3 entries):
CC(=O)Nc1ccc(OCC(=O)NCCc2nc3ccccc3[nH]2)cc1; not met
CC(=O)Nc1cccc(OCC(=O)NCCc2nc3ccccc3[nH]2)c1; not met
O=C(COc1ccccc1)NCCc1nc2ccccc2[nH]1; not met

Reported AUC reaches at least 500 ng·h/mL for O=C(Cn1ccnc1[N+](=O)[O-])NCc1ccccc1 [BZ, benznidazole, reference compound] ?
met

`O=C(COc1cccc([N+](=O)[O-])c1)NCCc1nc2ccccc2[nH]1` , same question.
not met

* * *

assay: In vitro metabolic stability in human liver microsomes; assay type: in vitro ADME; conditions: human, liver microsomes, Table 5, read-out: CLint (L/h/kg) human (converted)
endpoint: CLint scaled at 5 µM (L/h/kg)
Lab book: enter the figure in L/h/kg, no units written.

Cc1ccccc1OCC(=O)NCCc1nc2ccccc2o1; 22.9

For `O=C(COc1ccc2ccccc2c1Br)NCCc1nc2ccccc2[nH]1` , what is its reported CLint scaled at 5 µM?
49.9

`N#Cc1ccccc1OCC(=O)NCCc1nc2ccccc2[nH]1` , same question.
5.6

`O=C(COc1ccccc1[N+](=O)[O-])NCCc1nc2ccccc2[nH]1` , same question.
25.5

`O=C(CCc1ccccc1Br)NCCc1nc2ccccc2[nH]1` , same question.
28.8

* * *

assay: Fraction unbound by equilibrium dialysis; assay type: in vitro ADME; details: Table S5; fraction unbound
Label satisfied when fu is at or above 0.9; otherwise label not satisfied.

Reference set (4 entries):
Cc1ccccc1OCC(=O)NCCc1c[nH]c2ccccc12 [Compound 50]; not satisfied
O=C(CCOc1ccccc1)NCCc1c[nH]c2ccccc12 [Compound 58]; not satisfied
O=C(COc1ccc2ccccc2c1Br)NCCc1nc2cc(Cl)ccc2[nH]1 [Compound 52]; not satisfied
O=C(COc1ccc2ccccc2c1CO)NCCc1nc2ccccc2[nH]1 [Compound 46]; not satisfied

Reported fu reaches at least 0.9 for CC(=O)Nc1ccccc1OCC(=O)NCCc1nc2ccccc2[nH]1 [Compound 43] ?
satisfied

O=Cc1c(OCC(=O)NCCc2nc3ccccc3[nH]2)ccc2ccccc12 [Compound 45] , same question.
not satisfied

Cc1cc(C)c(C#N)c(SCC(=O)NCCc2c[nH]c3ccccc23)n1 [Compound 60] , same question.
not satisfied

* * *

assay: Fraction unbound by equilibrium dialysis; format: in vitro ADME; conditions: pH 7.4; Table S6; fraction unbound used to correct plasma clearance
Recorded fraction unbound at 4 h, 1 µM values for a group of compounds are listed next.
# respond with the number and nothing more

Worked cases, fraction unbound at 4 h, 1 µM given:
O=C(COc1ccccc1)NCCc1nc2ccccc2[nH]1; 0.23
O=C(COc1ccc2cc(O)ccc2c1)NCCc1nc2ccccc2[nH]1; 0.34
CC(=O)Nc1ccc(OCC(=O)NCCc2nc3ccccc3[nH]2)cc1; 0.49

For `CC(=O)Nc1cccc(OCC(=O)NCCc2nc3ccccc3[nH]2)c1` , what is its reported fraction unbound at 4 h, 1 µM?
0.16

`O=C(COc1cccc([N+](=O)[O-])c1)NCCc1nc2ccccc2[nH]1` , same question.
0.14

`O=C(COc1ccc2ccc(O)cc2c1)NCCc1nc2ccccc2[nH]1` , same question.
0.03

`NC(=O)Cn1c(CCNC(=O)COc2ccccc2)nc2ccccc21` , same question.
0.18
